Hello, the source for this data is patent US9115122B2, in case you need it.

Assign Cell Viability (% of Vehicle) HL-60 to each entry below.
Tested on: HL-60 leukemic cells
protocol text: Cell proliferation WST-1 assay, single dose (Example 4)
Format: cell-based
measurement parameters: 100 μM, 48 hours

# compound, recorded measurement
data = [
    ("CCOc1ccc(/C=C2\\SC(=O)N(CCCl)C2=O)cc1 [Compound 28f]", "99 ± 14 % of Vehicle"),
    ("CCOc1ccc(/C=C2\\SC(=O)N(CCCN)C2=O)cc1 [Compound 22a]", "8.0 ± 72 % of Vehicle"),
    ("CCOc1ccc(/C=C2\\SC(=O)N(CCNS(=O)(=O)c3cn(C)cn3)C2=O)cc1 [Compound 27c]", "51 ± 31 % of Vehicle"),
    ("CCOc1ccc(/C=C2\\SC(=O)N(Cc3ccc(C#N)cc3)C2=O)cc1 [Compound 28m]", "86 ± 37 % of Vehicle"),
]

Now for a further compound.
Lookup: Item CCOc1ccc(/C=C2\SC(=O)N(Cc3ccc(C(=O)O)cc3)C2=O)cc1 [Compound 28q] has what recorded Cell Viability (% of Vehicle) HL-60?
Found: 84 ± 37 % of Vehicle
